Source listed as patent US20250257130A1.

Form field: EC50 (read off the curve) (one value per entry).
EXPERIMENTAL SYSTEM: T1, Human ROR1-ECD-his (Acro Biosystems RO1-H522y) (human, UniProt Q01973 30-406)
T1 construct: extracellular domain; bought protein; also called hROR1-ECD-his; hu-ROR1-ECD-his
T1 sequence (Q01973 30-406): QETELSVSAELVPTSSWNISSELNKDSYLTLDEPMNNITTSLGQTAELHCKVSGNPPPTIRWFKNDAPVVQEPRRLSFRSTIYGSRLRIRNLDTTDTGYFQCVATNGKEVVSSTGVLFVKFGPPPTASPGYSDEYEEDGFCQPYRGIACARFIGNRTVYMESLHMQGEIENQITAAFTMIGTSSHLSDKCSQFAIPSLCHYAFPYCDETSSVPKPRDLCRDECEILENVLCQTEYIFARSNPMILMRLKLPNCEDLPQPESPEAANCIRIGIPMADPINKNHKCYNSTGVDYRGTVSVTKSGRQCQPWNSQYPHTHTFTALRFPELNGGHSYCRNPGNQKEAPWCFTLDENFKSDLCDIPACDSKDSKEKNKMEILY
MEASUREMENT PROTOCOL: ELISA, plate coated with hu-ROR1-his at 1 µg/mL

These solved cases illustrate the format of a correct answer.
BINDER: PR303191 (antibody, human IgG1, V domains shown, HCAb (heavy chain-only, human IgG1 Fc), no light chain) VH: EVQLLESGGGLVQPGGSLRLSCAASGFIFGSYAMSWVRQAPGKGLEWVSGISGTGGNTYYADSVKGRFTISRDNSKNTLYLQMNSLRAEDTAVYFCERGITIHGVVIIPPDYRGQGTLVTVSS
OBSERVED VALUE: ~0.7 ng/mL
--
BINDER: PR303201 (antibody, human IgG1, V domains shown, HCAb (heavy chain-only, human IgG1 Fc), no light chain) VH: EVQLLESGGGLVQPGGSLRLSCAASGFTFSGNAMSWVRQAPGKGLEWVSAISGSGDKTYYAASVKGRFTISRDNSNNTVYLQMNSLRAEDTAVYYCEKGAFRTTMDYWGQGTLVTVSS
OBSERVED VALUE: ~4 ng/mL
--
BINDER: PR303147 (antibody, human IgG1, V domains shown, HCAb (heavy chain-only, human IgG1 Fc), no light chain) VH: EVQLVESGGGLVQPGGSLRLSCAASGFTFSNFWMYWVRQAPGKGLVWVSRINSDGSSTNYADSVKGRFTISRDNAKNTLYLQMNSLRVEDTAVYSCAREGSGWYEDFDYWGQGTLVTVSS
OBSERVED VALUE: ~20 ng/mL

Given PR303125 (antibody, human IgG1, V domains shown, HCAb (heavy chain-only, human IgG1 Fc), no light chain) VH: EVQLLESGGGLVQPGGSLRLSCAASGFTFSSHAMSWVRQAPGKGLEWVSAISGSGDSTHYAASVKGRFTISRDNSKNTLYLQMNSLRAEDTAVYYCETLLRFLESLGNDGFKIWGQGTMVTVSS , state its recorded EC50 (read off the curve).
~2 ng/mL

Given PR000374 (antibody, human IgG1, kappa, V domains shown, positive control; also called Bench marker 1) VH: EVQLVESGGGLVQPGRSLRLSCTASGSDINDYPITWVRQAPGQGLEWIGFINSGGSTWYASWVKGRFTISRDDSKSIAYLQMNSLKTEDTAVYYCARGYSTYYRDFNIWGQGTLVTVSS VL: DIQMTQSPSSLSASVGDRVTINCQASQSIDSNLAWFQQKPGQPPKLLIYRASNLASGVPDRFSGSGSGTDFTLTISSLEAEDVATYYCLGGVGAVSYRTSFGGGTKVEIKR , state its recorded EC50 (read off the curve).
~0.8 ng/mL
